Biological target: T1, ParT (Streptomyces coelicolor A3(2) (plasmid …, UniProt Q8VWE5 1-325))
T1 sequence: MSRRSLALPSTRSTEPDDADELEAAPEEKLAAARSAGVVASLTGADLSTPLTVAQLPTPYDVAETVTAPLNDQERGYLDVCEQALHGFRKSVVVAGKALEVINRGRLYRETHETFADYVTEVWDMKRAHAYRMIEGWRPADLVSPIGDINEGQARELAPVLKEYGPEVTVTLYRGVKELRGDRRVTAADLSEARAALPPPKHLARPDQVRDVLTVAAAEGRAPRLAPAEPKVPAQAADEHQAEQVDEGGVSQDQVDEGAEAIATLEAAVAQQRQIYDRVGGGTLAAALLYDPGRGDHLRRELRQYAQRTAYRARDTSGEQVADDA
Experiment: BLI; no NTP; equilibrium analysis; BLI: 100 mM Tris-HCl pH 8, 150 mM NaCl, 1 mM MgCl2, 0.005% Tween-20, temperature not given; SPR at 4 C on Biacore 8K
Settings: protein: recombinant; tags: C-terminal His6; chain copies: 2; label: 5' biotin on strand 1 (BLI); blunt

{"columns": ["binder", "Kd"],
 "data": [
  ["40-bp parS duplex (dsDNA) DNA 1: GGCCGACCTCGTGTCTCCAATTGGAGACATCAACGAGGGC DNA 2: GCCCTCGTTGATGTCTCCAATTGGAGACACGAGGTCGGCC", "680 nM"]
]}

Recorded values, source paper PMC12260392.
